Values were extracted from PubChem BioAssay (NCI).

system: IGROV1 ovarian; assay: NCI tumour cell line growth inhibition, 48 h; in the data active = GI50 below about 0.43 µM; inactive = the rest
Return exactly one item of active, inactive

Use the examples below as a reference point.
>  <COMPOUND>
COc1cc(CN(c2ccc(C)cc2)C2OC(=O)c3ccccc32)cc(OC)c1OC (stereo not given)

>  <TESTED ON>
IGROV1 ovarian

>  <CLASS ASSIGNMENT>
inactive

$$$$
>  <COMPOUND>
O=C(Oc1ccccc1)C(Br)C(Br)c1ccccc1 (stereo not given)

>  <TESTED ON>
IGROV1 ovarian

>  <CLASS ASSIGNMENT>
inactive

$$$$
>  <COMPOUND>
COc1ccc2c(c1)O/C(=C\c1cccc(OCC(=O)Nc3nc(C)c(C)s3)c1)C2=O

>  <TESTED ON>
IGROV1 ovarian

>  <CLASS ASSIGNMENT>
active

$$$$
>  <COMPOUND>
Cn1cncc1-c1c(F)cncc1NC(=O)c1c(N)nn2cc(F)cnc12

>  <TESTED ON>
IGROV1 ovarian

>  <CLASS ASSIGNMENT>
inactive

$$$$

Please turn your attention to the following entry.
Problem: Per the records of this test, what outcome belongs to COc1cc(Nc2ncnc(Nc3ccc4c(n3)NC(=O)C(C)(C)O4)n2)cc(OC)c1OC ?
Solution: active
